Assay System: T1, PF4/heparin complex (human PF4 complexed with heparin) (human, UniProt P02776 32-101)
T1 construct: Multimeric complex of PF4 with heparin (not a protein); In the EIAs: PF4 captured on biotinylated heparin on streptavidin plates; In the SRA: platelets with 0.2 U/mL heparin; also called PF4 and heparin complexes
T1 sequence: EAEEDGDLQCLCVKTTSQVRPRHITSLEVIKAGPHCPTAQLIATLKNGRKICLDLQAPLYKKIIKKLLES
Assay Explanation: competition EIA, scFv 50 µg/mL; competitor HIT-negative sera antibodies, n=10
Measured Endpoint: mean % inhibition of serum antibody binding (%)
Reply with just the number (in %).

Prompt: mean % inhibition of serum antibody binding for Wildtype scFv (KKO-derived single chain variable fragment) (scFv, VL-(G4S)3 linker-VH; expressed in E. coli BL21 from pADL-22c, purified on Ni-NTA as histidine-tagged scFv, about 28 kDa; also called WT; KKO-scFv; not shown: histidine tag from the pADL-22c vector) scFv: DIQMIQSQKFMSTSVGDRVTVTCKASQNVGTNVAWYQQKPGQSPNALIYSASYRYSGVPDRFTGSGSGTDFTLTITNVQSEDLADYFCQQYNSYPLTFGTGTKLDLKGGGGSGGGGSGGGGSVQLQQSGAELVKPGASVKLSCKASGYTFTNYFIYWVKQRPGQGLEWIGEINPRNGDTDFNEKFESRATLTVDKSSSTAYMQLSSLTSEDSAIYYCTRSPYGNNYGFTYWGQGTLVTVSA ?
Response: -38.3
